Recorded inhibition at 200 µM values for a group of compounds are listed next.
Experimental target: CAT1 (cationic amino acid transporter 1, CAT1/SLC7A1) (Homo sapiens)
Construct: full-length human transporter stably transfected in HEK cells (HEK-CAT1); net uptake against HEK-VC vector control cells
Assay summary: cell-based
Parameters: species or system HEK-CAT1 (HEK293 stably transfected); Inhibition of net CAT1-mediated [3H]-L-arginine (100 uM) uptake, 5 min, scintillation counting, vector control subtracted
Condition: HEK293; L-arginine 100 uM as substrate; read-out: % Inhibition of L-arginine uptake at 200 µM
Procedure: Uptake and inhibition assays using HEK-CAT1 and HEK-VC cells and L-arginine, L-homoarginine, and ADMA as substrates were performed using the protocol described (Strobel et al. [2012]; Chafai et al. [2017]). […] The net uptake was determined by subtracting the total amount taken up by control cells from the amount taken up by CAT1-expressing cells, which was expressed as a percentage of the amount taken up by the control. […]
Measured endpoint: inhibition at 200 µM (%)

compound="O[C@@H](CNC[C@H](O)[C@H]1CCc2cc(F)ccc2O1)[C@@H]1CCc2cc(F)ccc2O1 (racemic) [Nebivolol]" endpoint_result=1.3
compound="CN(C)C(=N)NC(=N)N [Metformin]" endpoint_result=-23.1
compound="COc1ccnc(C[S+]([O-])c2nc3cc(OC(F)F)ccc3[nH]2)c1OC (stereo not drawn) [Pantoprazole]" endpoint_result=10.5
compound="O=C(O)c1cc(-c2ccc(F)cc2F)ccc1O [Diflunisal]" endpoint_result=-20.5
compound="CCC(C)(C)C(=O)O[C@H]1C[C@@H](C)C=C2C=C[C@H](C)[C@H](CC[C@@H]3C[C@@H](O)CC(=O)O3)[C@H]21 [Simvastatin]" endpoint_result=-10.5
compound="CCOC(=O)C1=C(COCCN)NC(C)=C(C(=O)OC)C1c1ccccc1Cl (stereo not drawn) [Amlodipine]" endpoint_result=-2.6
compound="CCOC(=O)C1=C(C)NC(C)=C(C(=O)OC)C1c1cccc(Cl)c1Cl (stereo not drawn) [Felodipine]" endpoint_result=-39.2
compound="Cc1cc(=O)n(-c2ccccc2)n1C [Antipyrine]" endpoint_result=-12.7
compound="CC(CN1c2ccccc2Sc2ccccc21)N(C)C (stereo not drawn) [Promethazine]" endpoint_result=14.4

----------
Experimental target: CAT1 (cationic amino acid transporter 1, CAT1/SLC7A1) (Homo sapiens, UniProt P30825)
Construct: full-length human transporter stably transfected in HEK cells (HEK-CAT1); net uptake against HEK-VC vector control cells
Sequence (P30825 whole entry): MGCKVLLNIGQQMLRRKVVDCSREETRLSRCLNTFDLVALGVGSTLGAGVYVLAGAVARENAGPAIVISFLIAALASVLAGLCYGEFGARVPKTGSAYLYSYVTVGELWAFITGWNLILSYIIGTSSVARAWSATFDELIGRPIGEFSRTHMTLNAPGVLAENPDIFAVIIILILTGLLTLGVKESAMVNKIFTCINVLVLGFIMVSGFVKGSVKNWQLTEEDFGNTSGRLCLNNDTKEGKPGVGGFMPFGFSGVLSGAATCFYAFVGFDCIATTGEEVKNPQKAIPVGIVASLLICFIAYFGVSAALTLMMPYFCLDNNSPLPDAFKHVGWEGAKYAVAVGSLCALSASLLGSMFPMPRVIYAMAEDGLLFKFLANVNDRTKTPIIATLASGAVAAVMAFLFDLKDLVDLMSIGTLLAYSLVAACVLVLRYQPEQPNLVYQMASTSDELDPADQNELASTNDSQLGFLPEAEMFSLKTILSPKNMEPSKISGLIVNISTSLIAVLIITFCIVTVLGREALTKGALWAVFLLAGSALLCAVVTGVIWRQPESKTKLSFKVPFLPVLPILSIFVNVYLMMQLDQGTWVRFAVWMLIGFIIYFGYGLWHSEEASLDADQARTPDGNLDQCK
Assay summary: inhibition of [3H]-L-arginine uptake in HEK-CAT1 cells
pIC50: −log10 of the molar value.
Measured endpoint: pIC50

compound="COc1ccc(CCN(C)CCCC(C#N)(c2ccc(OC)c(OC)c2)C(C)C)cc1OC (stereo not shown)" measured_endpoint=pIC50 endpoint_result=4.07

----------
Experimental target: CAT1 (cationic amino acid transporter 1, CAT1/SLC7A1) (Homo sapiens)
Construct: full-length human transporter stably transfected in HEK cells (HEK-CAT1); net uptake against HEK-VC vector control cells
Assay summary: cell-based
Set-up: species or system HEK-CAT1 (HEK293 stably transfected); Inhibition of net CAT1-mediated [3H]-ADMA (1 uM) uptake, 2.5 min, scintillation counting, vector control subtracted
Condition: HEK293; ADMA 1 uM as substrate; read-out: % Inhibition of ADMA uptake at 20 µM
Measured endpoint: inhibition at 20 µM (%)

compound="CC(=O)S[C@@H]1CC2=CC(=O)CC[C@]2(C)[C@H]2CC[C@@]3(C)[C@@H](CC[C@@]34CCC(=O)O4)[C@H]12 [Spironolactone]" measured_endpoint="inhibition at 20 µM" units_text=% endpoint_result=3.2
compound="Nc1ccc(S(=O)(=O)c2ccc(N)cc2)cc1 [Dapsone]" measured_endpoint="inhibition at 20 µM" units_text=% endpoint_result=13.4
compound="Nc1nc(N)c2nc(-c3ccccc3)c(N)nc2n1 [Triamterene]" measured_endpoint="inhibition at 20 µM" units_text=% endpoint_result=12.6
compound="CC12CC3CC(C)(C1)CC(N)(C3)C2 [Memantine]" measured_endpoint="inhibition at 20 µM" units_text=% endpoint_result=14.8
compound="COc1ccc([C@@H]2Sc3ccccc3N(CCN(C)C)C(=O)[C@@H]2OC(C)=O)cc1 [Diltiazem]" measured_endpoint="inhibition at 20 µM" units_text=% endpoint_result=8.5
compound="C[C@]12CCC(=O)C=C1CC[C@@H]1[C@@H]2[C@@H](O)C[C@@]2(C)[C@H]1CC[C@]2(O)C(=O)CO [Hydrocortisone]" measured_endpoint="inhibition at 20 µM" units_text=% endpoint_result=-0.1
compound="CN(C)C(=O)C(CCN1CCC(O)(c2ccc(Cl)cc2)CC1)(c1ccccc1)c1ccccc1 [Loperamide]" measured_endpoint="inhibition at 20 µM" units_text=% endpoint_result=17.6
compound="O[C@@H](CNC[C@H](O)[C@H]1CCc2cc(F)ccc2O1)[C@@H]1CCc2cc(F)ccc2O1 (racemic) [Nebivolol]" measured_endpoint="inhibition at 20 µM" units_text=% endpoint_result=-2.9
